Conditions: 360 K; Liquid
assay.endpoint: vapor or sublimation pressure (kPa)

As a guide, the following entries are already answered.
[[record]]
compound = "CCCCCCCCCCCCCCCCCCCCCCCCCCCCCCCCCC [tetratriacontane]"
observed_result = "3.59e-08"

[[record]]
compound = "CCCCCCCCCCCCCCCCCCCCCCCCCCCCCCCC [dotriacontane]"
observed_result = "1.69e-07"

[[record]]
compound = "CCCCCCCCCCCCCCCCCCCCCCCCCCCCCCCCCCCCCC [octatriacontane]"
observed_result = "1.81e-09"


A: CCCCCCCCCCCCCCCCCCCCCCCCCCCCCCCCC [tritriacontane]
B: CCCCCCCCCCCCCCCCCCCCCCCCCCCCCCCCCCC [pentatriacontane]
C: CCCCCCCCCCCCCCCCCCCCCCCCCCCCCCCCCCCCC [heptatriacontane]
D: CCCCCCCCCCCCCCCCCCCCCCCCCCCCCCC [hentriacontane]
[Q] With regard to vapor or sublimation pressure, arrange the entries in ascending order, please. Your reply should list the labels following the order given in the request.
[A] C, B, A, D
(C: 3.77e-09 kPa, B: 1.63e-08 kPa, A: 7.83e-08 kPa, D: 3.69e-07 kPa)

====

Details: 450 K; Liquid
assay.endpoint: vapor or sublimation pressure (kPa)

As a guide, the following entries are already answered.
[[record]]
compound = "CCCCCCCCCCCCCCCCCCCCCCCCCCCCCCCCCCCCCC [octatriacontane]"
observed_result = "9.16e-05"

[[record]]
compound = "CCCCCCCCCCCCCCCCCCCCCCCCCCCCCCCC [dotriacontane]"
observed_result = 0.00158


P: CCCCCCCCCCCCCCCCCCCCCCCCCCCCCCCCCCCC [hexatriacontane]
Q: CCCCCCCCCCCCCCCCCCCCCCCCCCCCCCCCCC [tetratriacontane]
R: CCCCCCCCCCCCCCCCCCCCCCCCCCCCCCC [hentriacontane]
[Q] With regard to vapor or sublimation pressure, arrange the entries in ascending order, please. Your reply should list the labels following the order given in the request.
[A] P, Q, R

====

Conditions: 450 K; Liquid
assay.endpoint: vapor or sublimation pressure (kPa)

P: CCCCCCCCCCCCCCCCCCCCCCCCCCCCCCCCC [tritriacontane]
Q: CCCCCCCCCCCCCCCCCCCCCCCCCCCCCCCCCCCCC [heptatriacontane]
R: CCCCCCCCCCCCCCCCCCCCCCCCCCCCCCCCCCC [pentatriacontane]
[Q] Rank items: key vapor or sublimation pressure, increasing. Your reply should list the labels following the order given in the request.
[A] Q, R, P
(Q: 0.000145 kPa, R: 0.000367 kPa, P: 0.000972 kPa)

====

Details: 460 K; Liquid
assay.endpoint: vapor or sublimation pressure (kPa)

P: CCCCCCCCCCCCCCCCCCCCCCCCCCCCCCCC
Q: CCCCCCCCCCCCCCCCCCCCCCCCCCCCCCCCCCCCC
R: CCCCCCCCCCCCCCCCCCCCCCCCCCCCCCCCC
S: CCCCCCCCCCCCCCCCCCCCCCCCCCCCCCCCCCCC
T: CCCCCCCCCCCCCCCCCCCCCCCCCCCCCCCCCC
[Q] Rank items: key vapor or sublimation pressure, increasing. Your reply should list the labels following the order given in the request.
[A] Q, S, T, R, P

A: CCCCCCCCCCCCCCCCCCCCCCCCCCCCCCCCCCCCCC
B: CCCCCCCCCCCCCCCCCCCCCCCCCCCCCCC
C: CCCCCCCCCCCCCCCCCCCCCCCCCCCCCCCCCCC
[Q] With regard to vapor or sublimation pressure, arrange the entries in ascending order, please. Your reply should list the labels following the order given in the request.
[A] A, C, B

Cited source for all entries: the NIST ThermoML archive (doi:10.1021/je030236t)
